Origin of values: paper PMC3495668

target-under-test: catechol O-methyltransferase (COMT) (Sus scrofa, UniProt F1RHN3)
Sequence (F1RHN3 1-270): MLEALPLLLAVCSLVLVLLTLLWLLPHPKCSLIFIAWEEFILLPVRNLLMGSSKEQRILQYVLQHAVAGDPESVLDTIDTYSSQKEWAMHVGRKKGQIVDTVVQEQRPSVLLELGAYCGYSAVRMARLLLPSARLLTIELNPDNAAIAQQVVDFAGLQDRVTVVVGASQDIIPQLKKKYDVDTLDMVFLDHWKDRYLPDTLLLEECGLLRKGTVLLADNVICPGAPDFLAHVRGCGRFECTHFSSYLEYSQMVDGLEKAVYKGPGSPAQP
measurement-label: Kd

> print(dat)
         smiles.structure  measurement.label  result
1  NCCc1c[nH]c2ccc(O)cc12                 Kd  ~87 µM
